Tested on: 8505C (Thyroid Gland Carcinoma)
Test: Bliss excess, mean over the matrix (fraction); higher = more synergy;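 also: after 72 h of two-drug dosing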
Endpoint: Bliss excess
Format: numeric value only, no unit, no commentary.

Cn1cnc2c(F)c(Nc3ccc(Br)cc3Cl)c(C(=O)NOCCO)cc21 [Selumetinib] + CC(C)n1c(=O)n(C)c2cnc3cc(F)c(-c4ccc(OCCCN5CCCCC5)nc4)cc3c21 [AZD1390] (first compound max 10 µM, 7x7, partner max 0.3 µM)    -0.0717
CCN(CCO)CCCOc1ccc2c(Nc3cc(CC(=O)Nc4cccc(F)c4)[nH]n3)ncnc2c1 [AZD2811] + C=CCn1c(=O)c2cnc(Nc3ccc(N4CCN(C)CC4)cc3)nc2n1-c1cccc(C(C)(C)O)n1 [AZD1775] (first compound max 1 µM, partner max 1 µM)    -0.0071
COc1cccc(OCCCN)c1-c1cc(Nc2cnc(C#N)cn2)n[nH]1 [Prexasertib] + C[C@@H]1COCCN1C2=NC(=NC(=C2)C3(CC3)[S@](=N)(=O)C)C4=C5C=CNC5=NC=C4 [AZD6738] (first compound max 1 µM, 7x7, partner max 10 µM)    -0.0075

API: the following record is the query input.
I have this compound here, CCc1c2c(nc3ccc(O)cc13)-c1cc3c(c(=O)n1C2)COC(=O)[C@]3(O)CC [SN-38] + O=C(c1cc(Cc2n[nH]c(=O)c3ccccc23)ccc1F)N1CCN(C(=O)C2CC2)CC1 [Olaparib] (first compound max 0.3 µM, 7x7, partner max 10 µM) , and I need its recorded Bliss excess.
0.0498

----------
Tested on: ST486 (Burkitt's Lymphoma)
Test: Bliss excess, mean over the matrix (fraction); higher = more synergy
Bliss excess listing for selected compounds.
The response must contain the number and no unit.

Some compounds with known Bliss excess results, for comparison:
CN(CCO)CC[C@H](CSc1ccccc1)Nc1ccc(S(=O)(=O)NC(=O)c2ccc(N3CCC([C@@H](O)c4ccccc4-c4ccc(Cl)cc4)CC3)cc2)cc1S(=O)(=O)C(F)(F)F [AZD4320] + CN(C)CCCOc1ccc(-c2ccc3ncc4c(c3c2)n(C2CCOCC2)c(=O)n4C)cn1 [AZD0156] (first compound max 1 µM, 7x7, partner max 1 µM)    -0.0086
Cc1cc2ncnn2cc1Nc1ncc2c(n1)n(C1CCOCC1)c(=O)n2C [AZD7648] + C[C@@H]1COCCN1C2=NC(=NC(=C2)C3(CC3)[S@](=N)(=O)C)C4=C5C=CNC5=NC=C4 [AZD6738] (first compound max 10 µM, 7x7, partner max 10 µM)    0.0077
Cc1c2c(nn1C)CSCc1cc(n(C)n1)CSc1cc(c3ccccc3c1)OCCCc1c(C(=O)O)n(C)c3c-2c(Cl)ccc13 [AZD5991] + Cc1cc2ncnn2cc1Nc1ncc2c(n1)n(C1CCOCC1)c(=O)n2C [AZD7648] (first compound max 1 µM, 7x7, partner max 10 µM)    -0.053
C=CCn1c(=O)c2cnc(Nc3ccc(N4CCN(C)CC4)cc3)nc2n1-c1cccc(C(C)(C)O)n1 [AZD1775] + C[C@@H]1COCCN1C2=NC(=NC(=C2)C3(CC3)[S@](=N)(=O)C)C4=C5C=CNC5=NC=C4 [AZD6738] (first compound max 1 µM, partner max 10 µM)    -0.0044
Cc1c2c(nn1C)CSCc1cc(n(C)n1)CSc1cc(c3ccccc3c1)OCCCc1c(C(=O)O)n(C)c3c-2c(Cl)ccc13 [AZD5991] + CC1(C)CCC(CN2CCN(c3ccc(C(=O)NS(=O)(=O)c4ccc(NCC5CCOCC5)c([N+](=O)[O-])c4)c(Oc4cnc5[nH]ccc5c4)c3)CC2)=C(c2ccc(Cl)cc2)C1 [Venetoclax] (first compound max 1 µM, 7x7, partner max 1 µM)    0.0088

Can you look up the measured Bliss excess of Cn1cnc2c(F)c(Nc3ccc(Br)cc3Cl)c(C(=O)NOCCO)cc21 [Selumetinib] + C=CCn1c(=O)c2cnc(Nc3ccc(N4CCN(C)CC4)cc3)nc2n1-c1cccc(C(C)(C)O)n1 [AZD1775] (first compound max 10 µM, partner max 1 µM) for me?
0.0165

Also need Cc1c2c(nn1C)CSCc1cc(n(C)n1)CSc1cc(c3ccccc3c1)OCCCc1c(C(=O)O)n(C)c3c-2c(Cl)ccc13 [AZD5991] + C=CCn1c(=O)c2cnc(Nc3ccc(N4CCN(C)CC4)cc3)nc2n1-c1cccc(C(C)(C)O)n1 [AZD1775] (first compound max 1 µM, partner max 1 µM) , thanks.
-0.0067

What do we get for Cc1cc2ncnn2cc1Nc1ncc2c(n1)n(C1CCOCC1)c(=O)n2C [AZD7648] + CN(C)CCCOc1ccc(-c2ccc3ncc4c(c3c2)n(C2CCOCC2)c(=O)n4C)cn1 [AZD0156] (first compound max 10 µM, 7x7, partner max 1 µM) ?
-0.0071

// provenance: the supplement of paper PMC11061612
